{"columns": ["compound", "melting point"],
 "data": [
  ["O=C(O)CCCCc1c[nH]c2ccc(F)cc12", "86 to 92 °C"],
  ["CC(=O)Nc1cc2c(c(C(=O)O)c1)NCCC2", "258 to 259 °C"],
  ["Cc1cc(Br)cnc1CCCCNN1Cc2ccccc2S(=O)(=O)N1", "187 to 188 °C"],
  ["Cc1cc(C)c2c(c1)N[C@@H](C(=O)O)[C@@H](C)C2=O (relative stereo)", "156 to 157 °C"],
  ["Nc1ccc(-c2ccccc2)cc1N", "96 to 99 °C"],
  ["CN1Cc2c(C(=O)O)ncn2-c2ccccc2C1=O", "287 °C"],
  ["CN(C)C1(Cc2ccccc2)CCC(=O)CC1", "80 to 84 °C"],
  ["CCCC12CCC(=O)C=C1c1c(cc(CC(=O)O)c(Cl)c1Cl)O2 (stereo unspecified)", "248 to 250 °C"],
  ["NS(=O)(=O)c1ccc(NN=C2C(=O)Nc3ccc(C(=O)NCCCn4ccnc4)cc32)cc1", "> 230 °C"],
  ["CN(C)c1ccc(C2OCCN2CCNc2ccc(NCCN3CCOC3c3ccc(N(C)C)cc3)c3c2C(=O)c2c(O)ccc(O)c2C3=O)cc1 (stereo unspecified)", "150 to 154 °C"],
  ["CCn1cc(C(=O)O)c(=O)c2cc(F)c(N3CCN(S(=O)(=O)c4ccc(Cl)cc4)CC3)c(F)c21", "231 to 233 °C"],
  ["CC(O)CC1NC(=O)c2sccc2-n2cccc21 (stereo unspecified)", "170 °C"],
  ["CN1C(=O)N(CC(=O)COC(C)(C)C)C(=O)C1(C)C", "61 to 63 °C"],
  ["COc1ccc2[nH]c(C3CCC(c4ccccc4)(N(C)C)CC3)c(C)c2c1 (stereo unspecified)", "156 to 163 °C"],
  ["CNc1ncnc2c1ncn2C1CC(F)C(CO)O1 (stereo unspecified)", "100 to 103 °C"],
  ["N#CCSc1nc2ccc(Cl)nc2s1", "112 to 114 °C"],
  ["OCc1nc2n(c1CO)-c1ccc(Cl)cc1C(c1ccccc1F)=NC2", "222 °C"],
  ["Cc1cc2nc(-c3ccc(F)cc3)cn2nc1Cl", "196 to 198 °C"],
  ["CC1(c2ccccc2)OC(C=Cc2ccc(C#N)cc2)=CC1=O (stereo unspecified)", "187 to 188 °C"],
  ["Cn1nc(N=Cc2ccncc2)nc1NCCCOC1=CCC=C(CN2CCCC2)C1", "166 to 167 °C"],
  ["CC(C)(C)n1nc(-c2ccc(C(F)(F)F)cc2)c(C#N)c1N", "155 to 156 °C"],
  ["CC(Oc1ccc(C(=O)O)cc1)c1ccccc1OCc1ccccc1 (stereo unspecified)", "203 to 204 °C"],
  ["CC(C)C[C@H](NC(=O)c1ccc2c(c1)Nc1ccccc1S2)C(=O)N[C@H]1CCOC1OC(=O)c1ccccc1 (stereo partly specified)", "193 to 195 °C"],
  ["COc1ccc([C@]2(c3ccc(F)c(-c4cncnc4)c3)N=C(N)N(C)C2=O)cc1C", "115 °C"],
  ["CCCCC1(N(C)C)CCC(c2[nH]c3ccccc3c2CCC)CC1 (stereo unspecified)", "127 to 130 °C"],
  ["Oc1cccc2c1CCCC2n1cc[nH]c1=S (stereo unspecified)", "188 to 190 °C"],
  ["Cc1sc(S(=O)(=O)NC(C)(C)CO)cc1NC(=O)c1cnn2c(C(F)(F)F)cc(-c3ccc(C(F)(F)F)cc3)nc12", "225 °C"],
  ["Cn1cc(C(N)=O)c(=O)c2sc(-c3ccccc3)cc21", "266 to 268 °C"],
  ["O=C(c1cc(C(F)(F)F)cc(C(F)(F)F)c1)N1CCC(Nc2nc3cccnc3n2Cc2ccco2)CC1Cc1ccccc1 (stereo unspecified)", "109 °C"],
  ["CCOC(=O)c1ccc(Nc2nnc(-c3ccc(Oc4ccccc4)cc3)s2)cc1", "206 to 207 °C"],
  ["FC(F)(F)c1cccc(Nc2nc(NCc3ccco3)nc(OCc3ccncc3)n2)c1", "124 to 126 °C"],
  ["COc1ccc(-c2cc(S(=O)(=O)c3ccc(N)cc3)cc(N3CCCC3)n2)cc1", "227 to 229 °C"],
  ["Cc1nc2c(OCc3c(Cl)ccc(S(=O)(=O)N4CCC[C@H]4C(=O)NCCCNC(=O)c4ccc(C=NN)cc4)c3Cl)cccn2c1Br", "170 °C"],
  ["C=CCN1CCN2c3ccccc3Cn3cccc3C2C1 (stereo unspecified)", "130 to 132 °C"],
  ["CCN(C(=O)COC(C)=O)C1=CC(C)(C)CC(C)=C1", "38 to 40 °C"],
  ["CCc1c(Cc2ccccc2)n(COCCO)c(=O)[nH]c1=O", "120 to 122 °C"]
]}
